B1: GLTSCR2 (parent)
chain: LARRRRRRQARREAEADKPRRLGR

variants of: B1; test: protein stability index of a GFP-peptide fusion (GPS, HEK-293T) (PSI 1-6); higher = more stable; settings: c terminus: a fixed tail appended;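 note: lentivirally expressed fusions sorted by FACS into six bins by GFP to DsRed ratio, PSI derived from sequencing read proportions per bin multiplied by bin number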
READOUT TYPE: protein stability index
Numbers only.

// known answers, use as guide
>>> meas_value("LARRRRRRQAHREAEADKPRRLGR")
4.74
>>> meas_value("LARRRARRQARREAEADKPRRLGR")
5.21
>>> meas_value("LARRRRRRQARREAEADVPRRLGR")
5.01
>>> meas_value("QARRRRRRQARREAEADKPRRLGR")
4.51
>>> meas_value("LARRRRRRQARREAEADKWRRLGR")
3.92

Batch lookup, protein stability index per entry.
1. LARRRRRRQARREAEADKPNRLGR
2. LARRRRRRQARRKAEADKPRRLGR
3. LARRRRRRQARRMAEADKPRRLGR
4. LARRRRRRQARREAEADKPRRRGR
5. LARRRRRRQARREAEVDKPRRLGR
6. LARRRRRRQARREAEADWPRRLGR
7. LARRRRRRQARREAEADKPRVLGR

[4.75, 4.37, 3.72, 5.04, 4.69, 3.88, 4.67]
